Target: full length active recombinant SYK enzyme (Homo sapiens, UniProt P43405)
Construct: full length active recombinant SYK enzyme (Millipore, Calif.)
Assay: Inhibition of Syk tyrosine phosphorylation activity (LANCE TR-FRET kinase assay)
Conditions: 1 nM active SYK enzyme, 550 nM SYK-substrate, 100 μM ATP, 1 hour at room temperature
readout_label: IC50

Cn1ccc2c(Nc3nc(NCc4cc[nH]n4)nnc3C(N)=O)cccc21; 100 to 1000 nM
NC(=O)c1nnc(N[C@@H]2CCCC(F)(F)[C@@H]2N)nc1Nc1cccc(Cl)c1; 10 to 100 nM
NC(=O)c1nnc(N[C@@H]2CCCC(F)(F)[C@@H]2N)nc1Nc1ccc2ncsc2c1; 10 to 100 nM
CC[C@@H](Nc1nnc(C(N)=O)c(Nc2ccc(C)c(OC)c2)n1)C(N)=O; 10 to 100 nM
Cc1ccc(Nc2nc(N[C@H](CC(F)F)C(N)=O)nnc2C(N)=O)cc1; 10 to 100 nM

For this molecule ( NC(=O)c1nnc(N[C@@H]2CCCC(F)(F)[C@@H]2N)nc1Nc1cccc(-c2ncco2)c1 ), measured IC50 is > 1000 nM

Looking up COc1cc(Nc2nc(N[C@@H]3CCOC[C@@H]3N)nnc2C(N)=O)ccc1Cl , I see its IC50 listed as 10 to 100 nM

IC50 reported for this molecule NC(=O)c1nnc(N[C@@H]2CCOC[C@@H]2N)nc1Nc1cccc(-n2nccn2)c1 : 1 to 10 nM

----------
Target: full length active recombinant SYK enzyme (Homo sapiens, UniProt P43405)
Construct: full length active recombinant SYK enzyme (Millipore, Calif.)
Assay: Inhibition of Syk tyrosine phosphorylation activity (LANCE TR-FRET kinase assay)
Conditions: 1 nM active SYK enzyme, 550 nM SYK-substrate, 100 μM ATP, 1 hour at room temperature
readout_label: IC50

Solved entries:
C[C@@H](Nc1nnc(C(N)=O)c(Nc2ccc3ccn(C)c3c2)n1)C(N)=O; 10 to 100 nM
CC[C@@H](Nc1nnc(C(N)=O)c(Nc2ccc(Cl)c(C(F)(F)F)c2)n1)C(N)=O; 100 to 1000 nM
CC(C)C[C@@H](Nc1nnc(C(N)=O)c(Nc2cccc3c2ccn3C)n1)C(N)=O; 1 to 10 nM

Shifting focus to the compound that follows.
Consider NC(=O)c1nnc(N[C@@H]2CCCC[C@@H]2N)nc1Nc1cncs1 . Its measured IC50 is 10 to 100 nM

----------
Below, each entry is listed alongside its reported IC50.
Molecular target: full length active recombinant SYK enzyme (Homo sapiens, UniProt P43405)
Construct: full length active recombinant SYK enzyme (Millipore, Calif.)
Assay: Inhibition of Syk tyrosine phosphorylation activity (LANCE TR-FRET kinase assay)
Settings: 1 nM active SYK enzyme, 550 nM SYK-substrate, 100 μM ATP, 1 hour at room temperature

Illustrative cases are given below, each with its answer.
CC[C@@H](Nc1nnc(C(N)=O)c(Nc2ccc(C)cc2)n1)C(N)=O; 0.01 to 0.1 µM
CC(C)[C@@H](Nc1nnc(C(N)=O)c(Nc2ccc3ncccc3c2)n1)C(N)=O; 0.01 to 0.1 µM
NC(=O)c1nnc(N[C@@H]2CCCC[C@@H]2N)nc1Nc1cc(-c2ccc(F)cc2)on1; 0.1 to 1 µM
NC(=O)c1nnc(N[C@@H]2CCCC[C@@H]2N)nc1Nc1cnc2c(F)cccc2c1; 0.001 to 0.01 µM
CC[C@@H](Nc1nnc(C(N)=O)c(Nc2cc(C)cc(F)c2)n1)C(N)=O; 0.01 to 0.1 µM
CC(C)C[C@@H](Nc1nnc(C(N)=O)c(Nc2ccc3c(ccc[n+]3[O-])c2)n1)C(N)=O; 0.01 to 0.1 µM
CC[C@@H](Nc1nnc(C(N)=O)c(Nc2cccc(F)c2)n1)C(N)=O; 0.01 to 0.1 µM
NC(=O)c1nnc(N[C@@H]2CCOC[C@@H]2N)nc1Nc1cccc(-c2ncco2)c1; 0.001 to 0.01 µM
NC(=O)c1nnc(N[C@@H]2CCCC[C@@H]2N)nc1Nc1cccc(-c2ncco2)c1; 0.001 to 0.01 µM
NC(=O)c1nnc(N[C@@H]2CCCC(F)(F)[C@@H]2N)nc1Nc1ccc2c(c1)COC2; 0.01 to 0.1 µM

Recorded result, Cn1ccc2c(Nc3nc(NCC4CCC(=O)N4)nnc3C(N)=O)cccc21 (stereo not shown) , IC50: 0.1 to 1 µM

Entry under test: NC(=O)c1nnc(N[C@@H]2CCCC[C@@H]2N)nc1Nc1cccc(Cl)c1 . Its IC50 was 0.001 to 0.01 µM

Entry Cn1ccc2c(Nc3nc(N[C@@H]4CCCC[C@@H]4N)nnc3C(N)=O)cncc21 ; IC50 = 0.001 to 0.01 µM

Per the record, Cc1ccc(Nc2nc(N[C@@H]3CCCC[C@@H]3N)nnc2C(N)=O)cc1 has IC50 of 0.001 to 0.01 µM

// IC50 value for NC(=O)c1nnc(N[C@@H]2CCCC[C@@H]2N)nc1Nc1ccc(C(=O)N2CCC2)cc1 : 0.01 to 0.1 µM

IC50 in this record for CC[C@@H](Nc1nnc(C(N)=O)c(Nc2ccc(N3CCOCC3)c(F)c2)n1)C(N)=O : 0.01 to 0.1 µM

----------
Molecular target: full length active recombinant SYK enzyme (Homo sapiens, UniProt P43405)
Construct: full length active recombinant SYK enzyme (Millipore, Calif.)
Experiment: Inhibition of Syk tyrosine phosphorylation activity (LANCE TR-FRET kinase assay)
Conditions: 1 nM active SYK enzyme, 550 nM SYK-substrate, 100 μM ATP, 1 hour at room temperature
# reported IC50; entries follow

NC(=O)c1nnc(N[C@@H]2CCCC[C@@H]2N)nc1Nc1cnc2cccnc2c1; 10 to 100 nM

Lab note: Cc1ccc(Nc2nc(N[C@@H]3CCOC[C@@H]3N)nnc2C(N)=O)cc1C gave IC50 of 1 to 10 nM

get_value(item= CC[C@@H](Nc1nnc(C(N)=O)c(Nc2cncc(F)c2)n1)C(N)=O , readout=IC50) returns 100 to 1000 nM

Note to self: IC50 recorded for Cc1ccc(Nc2nc(N[C@@H]3CCCC(F)(F)[C@@H]3N)nnc2C(N)=O)cc1 was 10 to 100 nM

----------
Target: full length active recombinant SYK enzyme (Homo sapiens)
Construct: full length active recombinant SYK enzyme (Millipore, Calif.)
Assay: Inhibition of Syk tyrosine phosphorylation activity (LANCE TR-FRET kinase assay)
Conditions: 1 nM active SYK enzyme, 550 nM SYK-substrate, 100 μM ATP, 1 hour at room temperature
pIC50: −log10 of the molar value.
readout_label: pIC50

Record excerpt, results attached:
CC[C@@H](Nc1nnc(C(N)=O)c(Nc2cnc3cc(F)ccc3c2)n1)C(N)=O; 7.00 to 8.00
NC(=O)c1nnc(N)nc1Nc1cccc(-c2ncccn2)c1; < 6.00
Cc1cc(Nc2nc(N[C@@H]3CCCC[C@@H]3N)nnc2C(N)=O)sn1; 7.00 to 8.00

// next entry
Briefly, pIC50 measured for CN(C)C(=O)c1ccc(Nc2nc(N[C@@H]3CCCC[C@@H]3N)nnc2C(N)=O)cc1 : 6.00 to 7.00

----------
Molecular target: full length active recombinant SYK enzyme (Homo sapiens)
Construct: full length active recombinant SYK enzyme (Millipore, Calif.)
Assay: Inhibition of Syk tyrosine phosphorylation activity (LANCE TR-FRET kinase assay)
Conditions: 1 nM active SYK enzyme, 550 nM SYK-substrate, 100 μM ATP, 1 hour at room temperature
pIC50: −log10 of the molar value.
readout_label: pIC50

Cc1cc(F)cc(Nc2nc(N[C@@H]3CCCC(F)(F)[C@@H]3N)nnc2C(N)=O)c1 [Example 202]; 7.00 to 8.00
Cn1ccc2ccc(Nc3nc(N[C@@H]4CCCC[C@@H]4N)nnc3C(N)=O)cc21 [Example 119]; 8.00 to 9.00
Cn1ncc2c(Nc3nc(N[C@@H]4CCCC(F)(F)[C@@H]4N)nnc3C(N)=O)cccc21 [Example 117]; 7.00 to 8.00
NC(=O)c1nnc(N[C@@H]2CCCC[C@@H]2N)nc1Nc1cccc(C(F)(F)F)c1 [Example 170]; 8.00 to 9.00

The compound CN(C)C(=O)c1ccc(Nc2nc(N[C@@H]3CCCC[C@@H]3N)nnc2C(N)=O)cn1 [Example 65] on full length active recombinant SYK enzyme (Homo sapiens): pIC50 was < 6.00

Response field pIC50 (full length active recombinant SYK enzyme (Homo sapiens)) for item NC(=O)c1nnc(N[C@@H]2CCCC(F)(F)[C@@H]2N)nc1Nc1ccc(Cl)cc1 [Example 250] : 6.00 to 7.00

// assay full length active recombinant SYK enzyme (Homo sapiens), entry NC(=O)c1nnc(N[C@@H]2CCOC[C@@H]2N)nc1Nc1ccc(Cl)cc1 [Example 243] , pIC50 value = 7.00 to 8.00

Considering Cn1cc(C#N)c2ccc(Nc3nc(N[C@H](CC4CC4)C(N)=O)nnc3C(N)=O)cc21 [Example 178] , its pIC50 with full length active recombinant SYK enzyme (Homo sapiens) was recorded as 8.00 to 9.00

Record NC(=O)c1nnc(N[C@@H]2CCOC[C@@H]2N)nc1Nc1ccc(C(F)(F)F)cc1 [Example 242] / full length active recombinant SYK enzyme (Homo sapiens), pIC50 recorded as 7.00 to 8.00

Observed pIC50, full length active recombinant SYK enzyme (Homo sapiens), NC(=O)c1nnc(N[C@@H]2CCCC[C@@H]2N)nc1Nc1cnn2ccccc12 [Example 35] : 8.00 to 9.00
